assay: Half life of thermal relaxation of compound in pH 7.4 DMSO-d6/phosphate-buffer using photoirradiated compound at 10 uM incubated in dark by UV/vis-spectroscopy; format: physicochemical; conditions: pH 7.4, 10 µM
Measurement type: t1/2 (h)

Consider the following illustrative entries.
Molecule: O=C(O)C1CCCN(CCCC#Cc2ccc(N=Nc3cccc4ccccc34)cc2)C1 (mixture of isomers)
t1/2, h: 4.3

Molecule: O=C(O)C1CCCN(CCCC=Cc2ccc(N=Nc3cccc4ccccc34)cc2)C1 (mixture of isomers)
t1/2, h: 1.5

[I] O=C(O)C1CCCN(CCC=Cc2ccc(N=Nc3cccc4ccccc34)cc2)C1 (mixture of isomers)
[II] O=C(O)C1CCCN(CCC#Cc2ccc(N=Nc3cccc4ccccc34)cc2)C1 (mixture of isomers)
Exercise: Given I and II , report the one with the higher recorded t1/2. Select an item and report its label.
Solution: II
